These measurements were taken from the supplement of paper PMC9942255.

Tested on: Bacillus subtilis DB104 (SP-AmyQ fusion secretion)
Method notes: AmyQ secretion efficiency, weighted average sort bin (1 = best secretion, 10 = worst) (bin number (weighted average, 1-10)); higher = lower secretion efficiency
Mark T for reported AmyQ secretion efficiency of 6 or greater; mark F for anything smaller.

Check out these entries, answers already filled in.
1. MKLSVKIAGVLTVAAAAMRKRKKRATAKGN = T
2. MKKKLAAGLTASAIVGTTLVVTPIEAATI = F
3. MKRLLVSLRVWMVFLMNWVTPDRKTYAAAVY = T
4. MKKWLIIAVSLAIAIVLFMYTKGEPKAAGM = F
5. MAIIIAIIAAVIVIAALITFNVFNASPG = T
6. MKKIMSAFVGMVLLTIFCFSPQASARRR = T
7. MKKVLMAFIICLSLILEDDDEEDSGAKAESV = F
8. MAAQTDYKKQVVGILLSLAFVLFVFSPSERHE = F
9. MFMLTMNNMAIIIAIIAAVIVIAALITFNVRNASPG = T
10. MNKLKRLSMLTVMIASVFIFSSHQLAAQY = F

Q. Decide: AmyQ secretion efficiency of `MKKWMAGLFLAAAVLLCLKRRRKRIQGASS` >= 6?
A. T

Q. Decide: AmyQ secretion efficiency of `MKKLLSTAAGLLLSLTATSVSAHYV` >= 6?
A. F

Q. Decide: AmyQ secretion efficiency of `MKLKSKLLLSCLALSTVFVLFSTATTIANAPTH` >= 6?
A. F

Q. Decide: AmyQ secretion efficiency of `MLLKWMSGLLLVAVGFSFTQVMVHAGET` >= 6?
A. F

Q. Decide: AmyQ secretion efficiency of `MKKKKKRVGLLAGCLAAGGFSYNAFATEN` >= 6?
A. T

* * *

Hi there, I'd appreciate the recorded AmyQ secretion efficiency for every entry that follows.
Test system: Bacillus subtilis DB104 (SP-AmyQ fusion secretion)
Method notes: AmyQ secretion efficiency, weighted average sort bin (1 = best secretion, 10 = worst) (bin number (weighted average, 1-10)); higher = lower secretion efficiency
Answers are plain numbers.

1) MKKIWIGMLAAAVLLLMVPKVGLADAA = 3.24
2) MKRMIVRMTLPLLIVCLAFSSFSASARVASE = 4.86
3) MKKTIMSFVAVAALSTTAFGAHASWKEI = 6.56
4) MTKKAWFLPLVCVLLISGWLAPAASASHQTT = 2.01
5) MKKRLIAPMLLSAASLAFFAMSGSAQAEED = 2.35

Kindly give each listed record's AmyQ secretion efficiency.
1. MNKRFFGPIILAFILFAGAIAIPS
2. MKRTWNVCLTALLSVLLVAGSVPFHAEAKKK

A.
7.33
2.67

* * *

Hi there, I'd appreciate the recorded AmyQ secretion efficiency for every entry that follows.
System: Bacillus subtilis DB104 (SP-AmyQ fusion secretion)
Method notes: AmyQ secretion efficiency, weighted average sort bin (1 = best secretion, 10 = worst) (bin number (weighted average, 1-10)); higher = lower secretion efficiency
Numbers only.

1) MRKKRVITCVMAASLTLGSLLPAGYVSAKED = 3.76
2) MKKLIMALVILGALKKRKKKISADSS = 8.07

Kindly give each listed record's AmyQ secretion efficiency.
1. MKKGIIRFLLVSFVLFFALSTGITGVQGAPA
2. MLKKKWMVGLLAGCLAAGGFSYNMFATEN
3. MRPVFPLILSAVLFLSCFFGARQTEASMSKR
4. MKKAFLVFLSVVLVTTVFLSKQQESVAQAKQL
5. MKKTIMSFKRKKALSTTAFGAHASAKEI

A.
4.19
6.41
2.44
1.98
7.79

Kindly give each listed record's AmyQ secretion efficiency.
1. MKKKIVALLAVIAVVSGSSMAAAPAEAKTI
2. MLTKRLLTIYIMLLGLIFLVALAWFPGAAQAEEK

A.
3.11
4.8

Kindly give each listed record's AmyQ secretion efficiency.
1. MFNRLFRVCFLAALIMAFTLPNSVVTSVYAQKP
2. MKLKSKLFVICLAAAAIFTAAGVSANNEALDF
3. MKSCKQLRRCKRRRILLLIPSVSFAADS
4. MFNRLFRVCFLAALIMAFTLPNSHYAQKP
5. MLKKKWMVGLLAGCLAAGGFSYNQFATEN
6. MRSKKLWISLLFALTLIFTMAFSNMSAQRAGK

A.
1. 2.32
2. 5.76
3. 7.57
4. 6.53
5. 6.91
6. 6.17

Kindly give each listed record's AmyQ secretion efficiency.
1. MTKLKMLSMRSRMIASLFIFSSQALAVQY
2. MKKLKRKKVILGALGTSYISADSS
3. MRIFKKAVFVIMISFLIATVNVNTAHAAIG

A.
[3.8, 7.53, 1.03]
